Values from the supplement of paper PMC6555819

tested on: PPARg:RXRa (NR concentration 180 nM, RXRa partner concentration 90 nM); experiment: PBM binding z-score (relative to random genomic background probes); higher = stronger binding; sequences stand for … in GC…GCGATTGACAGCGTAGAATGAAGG
Would you mind labelling by PBM binding z-score? At or over 3 is T, under is F.

Kindly determine if PBM binding z-score recorded for "CGAACTAGGTCAAGGACAGTGAATCTCCGCACGC" is above or exactly 3. T

Say whether "CAAACTAGCTCACCGGAAGGTCAAAGTCCGCATG" shows PBM binding z-score of 3 or more. F

Is PBM binding z-score for "CCTTACGGGTCACGAGGTGATAGCACGACGAGCG" at or above 3? T

Item "CAAACTAGGTCAAGAGGACAAAGTCCGCTTCCCG" with PBM binding z-score of 3 or above? T

Can "TAGCCTAGGTCATTCAGGGGCGAGTATAGAAAGC" be said to have PBM binding z-score at or above 3? F

Check this sequence for PBM binding z-score at or above 3: "TCGAGTAGGTTAGGGGCATTCATAATGGCGTCGA" F

Is reported PBM binding z-score greater than or equal to 3 here: "CCGAGTAGGTTATGCGGCATTCAGGCAACGGTGA" F

Is it the case that "CGAACTAGGTCAGAACAGGACACTGAAGGATGAT" has PBM binding z-score reaching or exceeding 3? T

Check if PBM binding z-score >= 3 (inclusive). Item: "TGAATGAGGTTGTAAGATCAGGGAACGTTGCAAA" F

Could you verify whether the entry "ATATGTAGGTTAAATCCGGGTCATTCAGGCTATG" shows PBM binding z-score of no less than 3? T

PBM binding z-score >= 3 for "CCTACTGGGCCACGAAAGGTCACTGATTCAGTGA" ? T

Identify whether the reported PBM binding z-score of the following sequence is 3 or greater: "TAGCCTAGGTCATTCAGGGGCCGGTATAGAAAGC" F

Does the sequence "ATACCAAGGTGATCGTGAGGCCGTTGATACTAAC" have recorded PBM binding z-score that is 3 or more? F

# check: PBM binding z-score of "GCTAACAGGCCATTTGGGTCACTCAATGACGGGC" is greater than or equal to 3 F

Given the entry "CAAACTTGGTCACAGAGGTCAAAGTCCGTGCGTA" , answer whether its PBM binding z-score meets or surpasses 3. T

Is reported PBM binding z-score greater than or equal to 3 here: "CCTACTGGGCCCAAGGTCATTGATTCCAATGCTC" T

Test whether the sequence "CCTACTGGGCCAAAAAGGTCATTCATGCCGATAA" records PBM binding z-score of 3 or higher. T

Reported PBM binding z-score at or above 3? "CATACAGGCTCAGCTAGGCCAGAGTAGGGACGGC" F

API: above_or_equal(metric=PBM binding z-score, cutoff=3) for item "GCATATAGGTAATACAAGGTGAATGTCCGATTGT" F

Decide: is the reported value of PBM binding z-score for "CCTCGGAGGACAACAGGAGGTCAGAGGTGCCAGA" equal to or greater than 3? F

Could you tell me if the measured PBM binding z-score of "TCAAATAGGTAAACAGGTGAAAGTCCGTAAGTTA" reaches 3 or more? F

Answer whether PBM binding z-score of "CGTCCCAGGTCAGCAGGTCAGTGAAAGCGACGTG" is greater than or equal to 3. F

I'd appreciate it if you could say whether "CTTTACGGGTCACGAGGTTATAGCACGACGAGCG" has PBM binding z-score at least equal to 3. T

PBM binding z-score >= 3 for "TCGAGTAGGTTAACAATGGGGCATTCAGCTTTCT" ? F

Decide: PBM binding z-score of "GGAACGATGGCAAGTTGATAGCAGAGTTTGATGG" >= 3? F

Item "GCAAACAGGTGAAACGCAGGTAACTCAGGGTGGC" with PBM binding z-score of 3 or above? F
